# assayed_target: Isdop2 (Ixodes scapularis)
# assay_comment: cell-based
# condition_details: read-out: % Inhibition (of response to dopamine), Isdop2 screen
experimental_endpoint: inhibition at 10 µM (%)
Answer format: numeric, % implied, no suffix.

Study these solved cases before continuing.
# molecule, scale_unit, inhibition at 10 µM
records = [
    ("O=c1c(-c2ccc(O)cc2)coc2cc(O)ccc12", "%", 77),
    ("C=C(C)[C@H]1Cc2c(ccc3c2O[C@@H]2COc4cc(OC)c(OC)cc4[C@@H]2C3=O)O1", "%", 77),
    ("COc1ccccc1N1CCN(CCCCNC(=O)c2ccc3ccccc3c2)CC1", "%", 71),
    ("O=C(Nc1ccc([N+](=O)[O-])cc1Cl)c1cc(Cl)ccc1O [Niclosamide]", "%", 100),
]

Reported inhibition at 10 µM for `CN(C)CCC=C1c2ccccc2C=Cc2ccccc21` was 95

---

# System: adult male Blatella germanica
# assay_comment: Cockroach contact assay (topical application)
# Format: in vivo
# condition_details: 200 mM compound
# From the text: A series of whole organism bioassays was developed to further evaluate the toxicity of chemistries to a range of agricultural, veterinary and public health pests and non-target insects (Tables 12 and 13). These assays are designed to rapidly explore the biological activity spectrum of chemistries as well as to facilitate initial investigations of the mode of action of insecticidal compounds. […] Lead chemistries identified in our in vivo screen have been evaluated in the cockroach and termite assays.
experimental_endpoint: % Mortality 48 hrs (%)
Return type: number; implicit unit %.

Here's what some known entries look like.
# compound, assayed_target, % Mortality 48 hrs (%)
measured = [
    ("CCNC(=O)N1CCN(CCCC(c2ccc(F)cc2)c2ccc(F)cc2)CC1 [Amperozide]", "adult male Blatella germanica", 0),
    ("COC(=O)N(C(=O)N1CO[C@@]2(C(=O)OC)Cc3cc(Cl)ccc3C2=N1)c1ccc(OC(F)(F)F)cc1", "adult male Blatella germanica", 50),
    ("CN(C)CCC=C1c2ccccc2CCc2ccccc21", "adult male Blatella germanica", 20),
    ("OCCN1CCN(CC/C=C2/c3ccccc3Sc3ccc(C(F)(F)F)cc32)CC1 [cis-(Z)-Flupenthixol]", "adult male Blatella germanica", 10),
    ("CN(C)CCCN1c2ccccc2Sc2ccc(Cl)cc21", "adult male Blatella germanica", 10),
]

Summary line: CN1CC2c3ccccc3Oc3ccc(Cl)cc3C2C1 (stereo not drawn) , adult male Blatella germanica, reported % Mortality 48 hrs = 5

---

# assayed_target: AaDOP2 (Aedes aegypti, UniProt H6D5H2)
# Sequence (H6D5H2 entry or part of it): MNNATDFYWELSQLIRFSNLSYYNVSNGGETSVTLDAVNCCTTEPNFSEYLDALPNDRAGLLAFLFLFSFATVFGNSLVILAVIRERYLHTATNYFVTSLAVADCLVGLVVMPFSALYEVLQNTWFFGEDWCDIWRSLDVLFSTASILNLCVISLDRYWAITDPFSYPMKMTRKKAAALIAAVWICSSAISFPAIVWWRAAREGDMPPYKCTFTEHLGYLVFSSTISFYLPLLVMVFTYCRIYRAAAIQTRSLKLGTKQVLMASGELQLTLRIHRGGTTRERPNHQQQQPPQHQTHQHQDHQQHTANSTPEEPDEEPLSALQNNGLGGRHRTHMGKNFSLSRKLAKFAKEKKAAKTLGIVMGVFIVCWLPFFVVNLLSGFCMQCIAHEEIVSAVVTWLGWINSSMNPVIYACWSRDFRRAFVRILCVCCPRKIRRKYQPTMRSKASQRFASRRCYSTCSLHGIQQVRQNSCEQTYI
# assay_comment: HTRF cAMP accumulation concentration response assay (Cisbio Dynamic 2)
# Assay type: cell-based
# condition_details: in vitro Concentration Response Curve assay, n = 2, relative to control antagonist Amitriptyline; read-out: Avg IC50
Counter-ions that a name gives are not always drawn.
One threshold, 3 µM, splits the recorded IC50 values: lower ones are yes (1), equal or higher ones are no (0).

Ask | Does the reported IC50 of `COc1ccc(Nc2cc(C)nc(Nc3ccc(NC(=O)c4c(F)cccc4Cl)cc3)n2)cc1` stay below 3 µM?
Reply | no (0)

Ask | # TODO verify IC50 < 3 µM strictly for this compound: `Cc1cc(Nc2ccccc2)nc(Nc2ccc(NC(=O)C(C)C)cc2)n1`
Reply | no (0)

Ask | # check: IC50 < 3 µM for O=[N+]([O-])C1=Cc2ccccc2OC1c1ccc2c(c1)OCO2 (centres unmarked)
Reply | no (0)

Ask | Here's an entry: `CC(C)(O)C#Cc1ccc2c3c(cccc13)C(=O)OC2=O` . Is its IC50 below 3 µM?
Reply | yes (1)

Ask | Quick check: IC50 of O=C1[C@H]2CCCC[C@H]2C(=O)N1CCCCN1CCN(c2nsc3ccccc23)CC1 [Peropirone Hcl] under 3 µM?
Reply | yes (1)

Ask | Item `Cc1cc(Nc2ccccc2)nc(Nc2ccc(NC(=O)C3CCCCC3)cc2)n1` : IC50 beneath 3 µM, strictly?
Reply | no (0)

Ask | Answer whether the compound `COc1ccc(Nc2cc(C)nc(Nc3ccc(NC(C)=O)cc3)n2)cc1` has IC50 strictly less than 3 µM
Reply | no (0)

Ask | Decide: IC50 of `COc1ccc(Nc2cc(C)nc(Nc3ccc(NC(=O)C(C)(C)C)cc3)n2)cc1` strictly below 3 µM?
Reply | no (0)

---

# Test system: adult male Blatella germanica
# assay_comment: Cockroach assay of Table 16 (title contact assay, text feeding assay)
# Type: in vivo
# condition_details: 200 mM compound
experimental_endpoint: % Mortality 24 hrs (%)
Please give a number only; it is taken to be in %.

Below are worked cases with known answers.
# compound, scale_unit, % Mortality 24 hrs
rows = [
    ("CN(C)CCC=C1c2ccccc2CCc2ccccc21", "%", 3),
    ("OCCN1CCN(CC/C=C2/c3ccccc3Sc3ccc(C(F)(F)F)cc32)CC1 [cis-(Z)-Flupenthixol]", "%", 3),
    ("CN(C)CCCN1c2ccccc2Sc2ccc(Cl)cc21", "%", 7),
    ("CCNC(=O)N1CCN(CCCC(c2ccc(F)cc2)c2ccc(F)cc2)CC1 [Amperozide]", "%", 0),
    ("CN1CC2c3ccccc3Oc3ccc(Cl)cc3C2C1 (stereo not drawn)", "%", 17),
]

`COC(=O)N(C(=O)N1CO[C@@]2(C(=O)OC)Cc3cc(Cl)ccc3C2=N1)c1ccc(OC(F)(F)F)cc1` has a reported % Mortality 24 hrs of 63

---

# assayed_target: AaDOP2 (Aedes aegypti, UniProt H6D5H2)
# assay_comment: CRELuc reporter dose-response in HEK293 cells stably expressing AaDOP2
# Format: cell-based
pEC50: −log10 of the molar value.
experimental_endpoint: pEC50

Per the records, this compound ( NCC(O)c1ccc(O)cc1 (racemic) [Octopamine] ) has pEC50 equal to ≤ 5.00

---

Entries and their IC50 values follow.
# assayed_target: Isdop2 (Ixodes scapularis, UniProt A0ACM8DGL0)
# Sequence (A0ACM8DGL0 entry or part of it): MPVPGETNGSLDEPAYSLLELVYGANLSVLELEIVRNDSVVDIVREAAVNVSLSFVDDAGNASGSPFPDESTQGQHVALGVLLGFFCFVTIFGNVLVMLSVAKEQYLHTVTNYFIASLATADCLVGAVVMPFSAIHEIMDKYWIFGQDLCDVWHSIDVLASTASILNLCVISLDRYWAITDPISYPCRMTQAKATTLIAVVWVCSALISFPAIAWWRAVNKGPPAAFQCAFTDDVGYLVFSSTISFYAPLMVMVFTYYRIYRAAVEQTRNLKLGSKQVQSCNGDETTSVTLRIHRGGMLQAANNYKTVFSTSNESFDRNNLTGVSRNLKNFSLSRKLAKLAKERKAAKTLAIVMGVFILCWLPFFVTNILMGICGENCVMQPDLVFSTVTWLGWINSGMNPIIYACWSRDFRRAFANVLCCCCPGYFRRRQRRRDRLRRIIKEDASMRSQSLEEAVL
# assay_comment: cAMP accumulation confirmation assay, cells stably expressing Isdop2

# compound, IC50
rows = [
    ("CN(C)CCC=C1c2ccccc2CCc2ccccc21", "2900 nM"),
    ("CC(C)(C)[C@]1(O)CCN2CC3c4ccccc4CCc4cccc(c43)[C@@H]2C1 (single isomer, unassigned; (+)) [(+)-Butaclamol]", "320 nM"),
    ("CSc1ccc2c(c1)C(N1CCN(C)CC1)Cc1ccccc1S2 (centres unmarked) [Methiothepin]", "85 nM"),
    ("CN1CCc2cc(Cl)c(O)cc2C(c2ccccc2)C1 (centres unmarked)", "120 nM"),
]

Moving on to another compound below.
Notebook: OCCN1CCN(CC/C=C2/c3ccccc3Sc3ccc(C(F)(F)F)cc32)CC1 [cis-(Z)-Flupenthixol] , IC50 read as 870 nM

---

# Tested on: adult male Blatella germanica
# assay_comment: Cockroach assay of Table 16 (title contact assay, text feeding assay)
# Type: in vivo
# condition_details: 200 mM compound
experimental_endpoint: % Mortality 72 hrs (%)
Report the figure in % without appending any unit label.

So, OCCN1CCN(CC/C=C2/c3ccccc3Sc3ccc(C(F)(F)F)cc32)CC1 [cis-(Z)-Flupenthixol] ? Its % Mortality 72 hrs was 10

Given item `CN(C)CCCN1c2ccccc2Sc2ccc(Cl)cc21` , the value recorded as its % Mortality 72 hrs is 17

Value of % Mortality 72 hrs reported for the molecule `CN(C)CCC=C1c2ccccc2CCc2ccccc21` is 23

Reported % Mortality 72 hrs of CCNC(=O)N1CCN(CCCC(c2ccc(F)cc2)c2ccc(F)cc2)CC1 [Amperozide] : 3

Entry CN1CC2c3ccccc3Oc3ccc(Cl)cc3C2C1 (stereo not drawn) ; % Mortality 72 hrs = 27

Reported % Mortality 72 hrs of `COC(=O)N(C(=O)N1CO[C@@]2(C(=O)OC)Cc3cc(Cl)ccc3C2=N1)c1ccc(OC(F)(F)F)cc1` : 80

---

# assayed_target: Isdop2 (Ixodes scapularis, UniProt A0ACM8DGL0)
# assay_comment: cAMP accumulation in HEK 293 cells transiently expressing Isdop2
# Format: cell-based
# condition_details: 10 μM biogenic amine, 300 nM propranolol, cAMP accumulation, mean±standard error
experimental_endpoint: Stimulatory response (fold-over-basal) Isdop2
Your answer is read as fold-over-basal, so omit the unit and give the number.

Examples with their reported Stimulatory response (fold-over-basal) Isdop2 follow.
# compound, scale_unit, experimental_result
rows = [
    ("NCCc1ccc(O)cc1", "fold-over-basal", 1.27),
    ("NCCc1c[nH]c2ccc(O)cc12 [Serotonin, 5-hydroxytryptamine]", "fold-over-basal", 1.52),
    ("NCC(O)c1ccc(O)cc1 (racemic)", "fold-over-basal", 1.20),
]

The recorded Stimulatory response (fold-over-basal) Isdop2 for NC[C@H](O)c1ccc(O)c(O)c1 [Norepinephrine] is 2.43

Field Stimulatory response (fold-over-basal) Isdop2 (entry `NCCc1c[nH]cn1` ) reads 1.55

---

Recorded IC50 for the following compounds
# assayed_target: AaDOP2 (Aedes aegypti, UniProt H6D5H2)
# assay_comment: HTRF cAMP accumulation concentration response assay (Cisbio Dynamic 2)
# Format: cell-based
Counter-ions that a name gives are not always drawn.
Give the value, in units of µM, as a plain number.

# compound, scale_unit, IC50
records = [
    ("CN(C)CCOc1ccc(/C(=C(/CCCl)c2ccccc2)c2ccccc2)cc1 [Toremifene citrate salt]", "µM", 44.9),
    ("CCc1nn(CCCN2CCN(c3cccc(Cl)c3)CC2)c(=O)n1CCOc1ccccc1 [Nefazodone HCl]", "µM", 4.88),
    ("CN1CCCC(n2nc(Cc3ccc(Cl)cc3)c3ccccc3c2=O)CC1 (stereo not shown) [Azelastine HCl]", "µM", 47.5),
]

Entry CC(=O)c1ccc2c(c1)OCO2 [ST092311, 5-acetyl-2H-benzo[d]1,3-dioxolene] , IC50 reported as 5.82
